All figures here come from patent US20100173958A1.

Biological target: human DGAT1 (Homo sapiens, UniProt O75907)
Construct: membrane fraction used
Sequence (O75907 whole entry): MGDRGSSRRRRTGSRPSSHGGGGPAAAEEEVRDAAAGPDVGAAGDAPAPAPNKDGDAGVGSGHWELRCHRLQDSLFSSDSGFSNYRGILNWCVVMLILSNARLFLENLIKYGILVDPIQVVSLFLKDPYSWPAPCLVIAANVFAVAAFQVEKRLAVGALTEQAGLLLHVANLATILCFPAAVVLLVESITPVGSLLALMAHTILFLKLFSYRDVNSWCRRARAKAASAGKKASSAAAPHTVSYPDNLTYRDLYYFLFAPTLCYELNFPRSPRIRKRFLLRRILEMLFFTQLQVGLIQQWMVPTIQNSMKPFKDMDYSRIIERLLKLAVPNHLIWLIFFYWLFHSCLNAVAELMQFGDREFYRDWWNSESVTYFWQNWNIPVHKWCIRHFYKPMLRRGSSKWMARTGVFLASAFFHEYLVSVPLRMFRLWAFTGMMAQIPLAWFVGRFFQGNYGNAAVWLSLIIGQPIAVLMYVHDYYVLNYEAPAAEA
Assay: Human Enzyme Assay (DGAT1 inhibition)
Details: human DGAT1 expressed in insect cell (sf9) membranes; 14C oleoyl coenzyme A, 30 minutes at room temperature
quantity kind: IC50 (nM)
Numbers only, in nM.

Lookup: Give the measured IC50 of O=C(Nc1ccc(S(=O)(=O)C2CCC(C(=O)O)CC2)cc1)c1nnc(Nc2cc(F)c(F)c(F)c2)o1 (mixture of isomers) [Example 1] .
Found: 290
